Test system: PPARg:RXRa DBDmut IVT, anti-RXR (DBD mutation: RXRa K156A/R161A, NR concentration 270 nM, RXRa partner concentration 90 nM)
assay: PBM binding z-score (relative to random genomic background probes); higher = stronger binding; sequences stand for … in GC…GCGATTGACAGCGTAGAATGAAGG
Labels assigned by PBM binding z-score range: low class = under 1, middle class = from 1 up to 2, high class = 2 and over

Problem: Any idea which band `AATACACGGTCACTAGGCCAGAGTAGGTACGAAT` is in?
Result: high class

Problem: Any idea which band `CGTCCAAGGTCATAGGAGGTCAGTAAAGACAGAT` is in?
Result: high class

Problem: Any idea which band `TAGCCTAGGTCATGGGCCAGAATACCACGCGAAC` is in?
Result: middle class

Problem: Any idea which band `GATACAGGGTCTGCTAGAGGCCAGAGTATGGAAA` is in?
Result: low class

Problem: Any idea which band `GCTACAGGGTCAAGGCCAGAGTACGCGTATTGAT` is in?
Result: high class

Problem: Any idea which band `TGTCAAAGTTCAAAGGTAACGTAGGTATCCACAC` is in?
Result: low class

Problem: Any idea which band `ACTAGTAGGCCAAGTTTGGGTCACTCAAACAAAG` is in?
Result: high class

Problem: Any idea which band `TGAATGAGGTTATAAGATCAGGGCACGTTGCAAA` is in?
Result: middle class

Problem: Any idea which band `TAGCCTAGGTCATTCTGGGGCCAGTATAGAAAGC` is in?
Result: middle class

Problem: Any idea which band `TGAATGAGGTTAAAGACCAGGGAACGTGGCGTCG` is in?
Result: middle class

Problem: Any idea which band `GATACAGGGTTAGCTAGAGGCCAGAGTATGGAAA` is in?
Result: low class

Problem: Any idea which band `TCGCGTAGGTTAGTCGGGGCATTCAGCCAACATA` is in?
Result: low class

Problem: Any idea which band `CCTAGCAGGCCAGGGTAACTCAAGCATTTCGCTT` is in?
Result: low class

Problem: Any idea which band `ACTAGCAGGCCAAGTTGGGGTCACTCAAACAAAG` is in?
Result: middle class

Problem: Any idea which band `TCTACTAGTTGAAGGGCAACCGACGAGTCCGTTT` is in?
Result: middle class

Problem: Any idea which band `AATACTGGGTCACTAGGCCAGAGTAGGTACGAAT` is in?
Result: high class

Problem: Any idea which band `AGAATGTGGTTATTAAGATCAGGGAATTGCGGTC` is in?
Result: low class

Problem: Any idea which band `CCGACTGGGGCATAAGGTTACGATAAGCCAGCCC` is in?
Result: high class

Problem: Any idea which band `TATACAGGGTCAAAGGCAAGAGTACGAATGTCGA` is in?
Result: high class

Problem: Any idea which band `CCTGCTAGGCCAATGGTCAGCTAAAGCAGCTCGC` is in?
Result: low class

Problem: Any idea which band `CAAACTAAGTCAAAGGTCAAAGTCGAGCCAACCA` is in?
Result: high class

* * *

Test system: VDR homodimer (NR concentration 270 nM)
assay: PBM binding z-score (relative to random genomic background probes); higher = stronger binding; sequences stand for … in GC…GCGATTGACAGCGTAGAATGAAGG
1 means recorded PBM binding z-score is 0.6 or above; -1 means it is below 0.6.

residueString | discreteLabel
AGTCAACGTTCACTAGGTAACGTAAGATTCAGCT | -1
AGTCAAAGTTCAGGACGAGGCAACGTAAAGCACG | 1
TCATATAGGTAAACAGGTGAAAGCCCGTAAGTTA | -1
TCTATTAGTTGATTAAGGCAACCGAAACAGCGGA | -1
TCATATAGGTAATTGCTAGGTGAAAGTCCGATCT | -1
CGAAGTAGGTCAGAACAGGACAGTGAAGGATGAT | -1

Problem: Dear colleague, could you confirm whether `CGAACTAGGTCAAGGACAGTCAATCTCCGCACGC` has PBM binding z-score at or above 0.6?
Result: -1

Problem: Dear colleague, could you confirm whether `ACAGACAGGTGAGTGAAGGTAACACAGCTGGACG` has PBM binding z-score at or above 0.6?
Result: -1

Problem: Dear colleague, could you confirm whether `CGTCCAAGGTCAGAGAAGTCAGTGAATGCCGAGT` has PBM binding z-score at or above 0.6?
Result: 1

Problem: Dear colleague, could you confirm whether `CCTATTAGTTGACCATAAGGGCAAACGAAGCTCG` has PBM binding z-score at or above 0.6?
Result: 1

Problem: Dear colleague, could you confirm whether `TGAACGAGGTTAAAGATCAGGGAACGTGGCGTCG` has PBM binding z-score at or above 0.6?
Result: -1

Problem: Dear colleague, could you confirm whether `CCTCGGAGGACAACATGAGGTCAGAGCTGCCAGA` has PBM binding z-score at or above 0.6?
Result: 1

Problem: Dear colleague, could you confirm whether `AGTCAAAGTTCATGTAGGTAACGTAAGATATGCT` has PBM binding z-score at or above 0.6?
Result: 1

Problem: Dear colleague, could you confirm whether `CAAACTAGGTCAAAGGTGAAAGTCGAGCCAACCA` has PBM binding z-score at or above 0.6?
Result: 1

Problem: Dear colleague, could you confirm whether `CCTACTGGGCCACGAAAGGTCATTGAGTCAGTGA` has PBM binding z-score at or above 0.6?
Result: 1

Problem: Dear colleague, could you confirm whether `TCTTGTAGATCAAGCAGGTTAAAAAAGCCTGAGT` has PBM binding z-score at or above 0.6?
Result: -1

Problem: Dear colleague, could you confirm whether `GCTAGTTGGTCCGTAAAAGGTCACACACCGGTCG` has PBM binding z-score at or above 0.6?
Result: 1

Problem: Dear colleague, could you confirm whether `AGTCAAGGTTCACTAGGTAACGTAAGATTCAGCT` has PBM binding z-score at or above 0.6?
Result: 1
